- assay: in vitro
- Format: cell-based
- measurement_parameters: human, MT2 cells; Table 3; trypan blue exclusion; read-out: Cytotoxicity
parameter_measured: CC50 (µM)
One number for each entry, in µM.

What value of CC50 has been reported for the following compound? N=C(N)NCCC[C@H](NC(=O)[C@H](CCCNC(=N)N)NC(=O)[C@H](CCCNC(=N)N)NC(=O)[C@H](CCCNC(=N)N)NC(=O)[C@H](CCCNC(=N)N)NC(=O)[C@@H](N)CCCNC(=N)N)C(=O)NC[C@H]1O[C@H](O[C@H]2[C@H](O)[C@@H](O)[C@H](N)C[C@@H]2N)[C@H](N)[C@@H](O)[C@@H]1O [Compound 2, L-Arg-6-mer-neamine] 210

----------
- assay: in vitro
- Assay type: cell-based
- measurement_parameters: human; Table 4; tryphan blue exclusion assay for MT2 cells; read-out: Cytotoxicity
parameter_measured: CC50 (µM)
Answers are plain numbers, in µM.

smiles_repr	CC50 [µM]
CC(=O)N[C@H](CCCNC(=N)N)C(=O)N[C@H](CCCNC(=N)N)C(=O)N[C@H](CCCNC(=N)N)C(=O)N[C@H](CCCNC(=N)N)C(=O)N[C@H](CCCNC(=N)N)C(=O)N[C@H](CCCNC(=N)N)C(=O)O	170

Could you tell me CC50 for each of these compounds? They are listed below.
1. CC(=O)N[C@H](CCCNC(=N)N)C(=O)N[C@H](CCCNC(=N)N)C(=O)N[C@H](CCCNC(=N)N)C(=O)N[C@H](CCCNC(=N)N)C(=O)N[C@H](CCCNC(=N)N)C(=O)N[C@H](CCCNC(=N)N)C(=O)N[C@H](CCCNC(=N)N)C(=O)N[C@H](CCCNC(=N)N)C(=O)N[C@H](CCCNC(=N)N)C(=O)NC[C@H]1O[C@H](O[C@H]2[C@H](O)[C@@H](O)[C@H](N)C[C@@H]2N)[C@H](N)[C@@H](O)[C@@H]1O
2. CC(=O)N[C@H](CCCNC(=N)N)C(=O)N[C@H](CCCNC(=N)N)C(=O)N[C@H](CCCNC(=N)N)C(=O)N[C@H](CCCNC(=N)N)C(=O)N[C@H](CCCNC(=N)N)C(=O)N[C@H](CCCNC(=N)N)C(=O)N[C@H](CCCNC(=N)N)C(=O)N[C@H](CCCNC(=N)N)C(=O)N[C@H](CCCNC(=N)N)C(=O)O
3. CC(=O)N[C@H](CCCNC(=N)N)C(=O)N[C@H](CCCNC(=N)N)C(=O)N[C@H](CCCNC(=N)N)C(=O)N[C@H](CCCNC(=N)N)C(=O)N[C@H](CCCNC(=N)N)C(=O)N[C@H](CCCNC(=N)N)C(=O)NC[C@H]1O[C@H](O[C@H]2[C@H](O)[C@@H](O)[C@H](N)C[C@@H]2N)[C@H](N)[C@@H](O)[C@@H]1O

150
150
150

----------
- System: HIV-1 IIIB
- assay: microbe, parasite or virus in culture
- Type: cell-based
- measurement_parameters: Table 3; against HIV-1 IIIB virus; read-out: EC50
Give measured pEC50 for each item. Keep answers brief.
One number for each entry, as −log10 of the molar value.

smiles_repr	target_or_test_system	pEC50
N=C(N)NCCC[C@H](NC(=O)[C@H](CCCNC(=N)N)NC(=O)[C@H](CCCNC(=N)N)NC(=O)[C@H](CCCNC(=N)N)NC(=O)[C@H](CCCNC(=N)N)NC(=O)[C@H](CCCNC(=N)N)NC(=O)[C@H](CCCNC(=N)N)NC(=O)[C@H](CCCNC(=N)N)NC(=O)[C@@H](N)CCCNC(=N)N)C(=O)NC[C@H]1O[C@H](O[C@H]2[C@H](O)[C@@H](O)[C@H](N)C[C@@H]2N)[C@H](N)[C@@H](O)[C@@H]1O	HIV-1 IIIB	4.43

Attention now shifts to the item below.
Request: pEC50, test system HIV-1 IIIB, entry `N=C(N)NCCC[C@H](NC(=O)[C@H](CCCNC(=N)N)NC(=O)[C@H](CCCNC(=N)N)NC(=O)[C@H](CCCNC(=N)N)NC(=O)[C@H](CCCNC(=N)N)NC(=O)[C@@H](N)CCCNC(=N)N)C(=O)NC[C@@H]1O[C@H](O[C@H]2[C@@H](O)[C@H](O[C@@H]3[C@@H](O)[C@H](N)C[C@H](N)[C@H]3O[C@H]3O[C@H](CO)[C@@H](O)[C@H](O)[C@H]3N)O[C@@H]2CO)[C@H](N)[C@@H](O)[C@@H]1O` 4.51

All values here come from patent US20060166867A1.
